B1: CPEB3 Ribozyme (parent)
chain: GGGGGCCACAGCAGAAGCGUUCACGUCGCGGCCCCUGUCAGAUUCUGGUGAAUCUGCGAAUUCUGCUGU

# Variants of: B1
# Test Summary: self-cleavage, relative activity (ratio to wild type); higher = more cleavage; co-transcriptional

# Mutation Annotation, self-cleavage
data = [
    ("G2A G48U", 0.215),
    ("U46C G48U", 1.02),
    ("A51C G65C", 0.64),
    ("C35U U64C", 0.836),
    ("C24G C27A", 0.201),
    ("G1C U20G", 0.131),
    ("A16G C45A", 0.811),
    ("A8G G30A", 0.861),
    ("C45A U46A", 1.01),
    ("U36G A52G", 0.296),
    ("G25A A51G", 0.22),
    ("C7G G30U", 0.564),
    ("U64C G68A", 0.931),
    ("G4C G50A", 0.654),
    ("U43G U69G", 0.97),
    ("A40U U61G", 0.286),
    ("G14C U62A", 0.394),
    ("C33U A40G", 0.952),
    ("A23U G65A", 0.885),
    ("U36A A40G", 0.248),
    ("U38G C66G", 0.229),
    ("G19A C66A", 0.145),
    ("U20G A42G", 0.079),
    ("G2A C22G", 0.0504),
    ("U44C U53G", 0.747),
    ("C39A G68C", 0.932),
    ("A51U U69G", 1.06),
    ("G17C G19A", 0.103),
    ("U53C U55C", 0.409),
    ("C63A U67C", 0.651),
    ("G4C C35A", 0.0948),
    ("C45A A52U", 0.919),
    ("G3C G14A", 0.0364),
    ("C34U G56A", 0.955),
    ("G4U G47C", 0.793),
    ("G25U C63U", 0.173),
    ("C39G A60G", 0.794),
    ("A13U C57G", 0.226),
    ("G25C U44A", 0.188),
    ("A15G C18G", 0.198),
    ("U43G G47C", 0.936),
    ("U67G U69A", 1.1),
    ("A42G C63G", 0.583),
    ("G11U G56A", 0.701),
    ("G11U U55G", 0.225),
    ("A59G A60G", 0.533),
]
